# assay info: Ratio of drug level in alveolar macrophages to plasma in healthy human at 400 mg, po administered as single dose after 6 hrs
measurement kind: Kp at 6 h
// no unit string in output, number only

(Q) GET /values?readout=Kp at 6 h&item= CC[C@H]1OC(=O)[C@H](C)C(=O)[C@H](C)[C@@H](O[C@@H]2O[C@H](C)C[C@H](N(C)C)[C@H]2O)[C@@]2(C)C[C@@H](C)/C(=N\C(C)=O)[C@H](C)[C@@H](OC/C(=N\OCc3ccc(-n4cccn4)nc3)CO2)[C@]1(C)O [MODITHROMYCIN]
(A) 183

====

# assay info: Plasma concentration in healthy human at […], po after 4 hrs
# Assay type: ADME, organism-based
# Parameters: route oral
measurement kind: concentration at 4 h (µg/mL)
# number only, unit µg/mL dropped from output

(Q) GET /values?readout=concentration at 4 h&item= CC[C@H]1OC(=O)[C@H](C)C(=O)[C@H](C)[C@@H](O[C@@H]2O[C@H](C)C[C@H](N(C)C)[C@H]2O)[C@@]2(C)C[C@@H](C)/C(=N\C(C)=O)[C@H](C)[C@@H](OC/C(=N\OCc3ccc(-n4cccn4)nc3)CO2)[C@]1(C)O [MODITHROMYCIN]
(A) 0.575
